Provenance of the data: ChEMBL document CHEMBL1201862

GI50 values for the compounds below.
Tested on: DMS-273
Protocol Summary: NCI tumour cell line growth inhibition, 48 h
Calls of active or inactive are those of the source. No stated cut-off is given here; in the data, active = GI50 up to about 1.1 µM and inactive = higher.

// known answers, use as guide
CN(C)CCC1(C2=CCCC2)CC/C(=C\c2ccccc2)C1=O (stereo unspecified) :: 15.7 µM (inactive)
CC(=O)C1C(=O)N(C(C)C)C[C@@H]2CCC(=O)C[C@H]12 (stereo partly specified) :: > 100 µM (inactive)
COC1(OC)C(N(C)C)=C(Cl)C(=O)/C1=C/C=O :: > 100 µM (inactive)
COc1ccc(C(c2ccc(C(C)C)cc(=O)c2O)c2c(O)cc3oc(-c4ccccc4)cc(=O)c3c2O)cc1 (stereo unspecified) :: 5.08 µM (inactive)
Cc1nc2ccc(C(F)(F)F)cc2nc1Nc1ccc(Cl)c(Cl)c1 :: 4.81 µM (inactive)

Which GI50 is listed for O=C(Nc1ccccc1SC(/C=C/NNC1=NN=C(c2ccccc2)C(c2ccccc2)N1)c1ccccc1)c1ccc(Cl)cc1Cl (stereo unspecified) ? 41.6 µM (inactive)

Which GI50 is listed for C[C@]12CCC(=O)C=C1CC[C@@H]1C2CC[C@]2(C)NC(=O)C(C#N)CC12 (stereo partly specified) ? > 100 µM (inactive)

Which GI50 is listed for CC(=O)O[C@]12CCCCC1C1(O)C(O)CCCC[C@H]12 (stereo partly specified) ? > 100 µM (inactive)

Which GI50 is listed for `CCc1c(-c2coc(CC/C(C)=C/c3ccccc3)n2)oc(OC)c(C)c1=O` ? 10.1 µM (inactive)

Which GI50 is listed for CC1=NN(c2ccccc2)C(=O)C12[C@H](c1ccccc1)C2(C#N)C#N (stereo partly specified) ? 2.67 µM (inactive)

Which GI50 is listed for `O=C1c2ccccc2C(=O)N1CCN(CCN1C(=O)c2ccccc2C1=O)Cn1cccn1` ? 46.1 µM (inactive)
